- Assayed system: hGLP-1R (Homo sapiens, UniProt P43220)
- Method: cell-based or functional assay
The label is Satisfied for cAMP EC50 (1.0% HSA) below 30 nM and Not satisfied for cAMP EC50 (1.0% HSA) equal to or exceeding 30 nM.

Y-Aib-EGT-αMeF(2F)-TSD-4Pal-SI-αMeL-LD-Orn-K((2-[2-(2-Amino-ethoxy)-ethoxy]-acetyl)2-(εK)-CO-(CH2)12-CO2H)AQ-Aib-EFI-(D-Glu)-αMeY-LIEGGK((2-[2-(2-Amino-ethoxy)-ethoxy]-acetyl)2-(εK)-CO-(CH2)12-CO2H)-NH2 (peptide)	Satisfied

Q: Does Y-Aib-EGT-αMeF(2F)-TSD-4Pal-SI-αMeL-LD-Orn-K((εK)-(εK)-(γ-Glu)-CO-(CH2)12-CO2H)AQ-Aib-EFI-(D-Glu)-αMeY-LIEGGK((εK)-(εK)-(γ-Glu)-CO-(CH2)12-CO2H)-NH2 (peptide) have cAMP EC50 (1.0% HSA) strictly under 30 nM?
Result: Satisfied

Q: Does Y-Aib-EGT-αMeF(2F)-TSD-4Pal-SI-αMeL-LD-Orn-K((2-[2-(2-Amino-ethoxy)-ethoxy]-acetyl)2-(γ-Glu)-CO-(CH2)12-CO2H)AQ-Aib-EFI-(D-Glu)-αMeY-LIEGGK((2-[2-(2-Amino-ethoxy)-ethoxy]-acetyl)2-(γ-Glu)-CO-(CH2)12-CO2H)SSG-Orn-PPPS-NH2 (peptide) have cAMP EC50 (1.0% HSA) strictly under 30 nM?
Result: Not satisfied

Q: Does Y-Aib-EGT-αMeF(2F)-TSD-4Pal-SI-αMeL-LD-Orn-K((2-[2-(2-Amino-ethoxy)-ethoxy]-acetyl)2-(γ-Glu)-CO-(CH2)12-CO2H)AQ-Aib-EFI-(D-Glu)-αMeY-LIEGGK((2-[2-(2-Amino-ethoxy)-ethoxy]-acetyl)2-(γ-Glu)-CO-(CH2)12-CO2H)SSG-Orn-PPP-Orn-NH2 (peptide) have cAMP EC50 (1.0% HSA) strictly under 30 nM?
Result: Not satisfied

Q: Does Y-Aib-EGT-αMeF(2F)-TSD-4Pal-SI-αMeL-LD-Orn-K((εK)-(γ-Glu)-CO-(CH2)12-CO2H)AQ-Aib-EFI-(D-Glu)-αMeY-LIEGGK((εK)-(γ-Glu)-CO-(CH2)12-CO2H)-NH2 (peptide) have cAMP EC50 (1.0% HSA) strictly under 30 nM?
Result: Satisfied

Q: Does Y-Aib-EGT-αMeF(2F)-TSD-4Pal-SI-αMeL-LD-Orn-K((2-[2-(2-Amino-ethoxy)-ethoxy]-acetyl)2-(γ-Glu)-CO-(CH2)12-CO2H)AQ-Aib-EFI-(D-Glu)-αMeY-LIEGGK((2-[2-(2-Amino-ethoxy)-ethoxy]-acetyl)2-(γ-Glu)-CO-(CH2)12-CO2H)SSG-NH2 (peptide) have cAMP EC50 (1.0% HSA) strictly under 30 nM?
Result: Not satisfied

Q: Does Y-Aib-EGT-αMeF(2F)-TSD-4Pal-SI-αMeL-LD-Orn-K((2-[2-(2-Amino-ethoxy)-ethoxy]-acetyl)2-(γ-Glu)-CO-(CH2)12-CO2H)AQ-Aib-EFI-(D-Glu)-αMeY-LIEGGK((2-[2-(2-Amino-ethoxy)-ethoxy]-acetyl)2-(γ-Glu)-CO-(CH2)12-CO2H)-NH2 (peptide) have cAMP EC50 (1.0% HSA) strictly under 30 nM?
Result: Not satisfied
